This collection of values is drawn from ChEMBL document CHEMBL3616366.

# Procedure text: Protective index, ratio of TD50 for neurotoxicity in ip dosed albino CD-1 mouse to ED50 for anticonvulsant activity in ip dosed maximal electoshock-induced seizure albino CD-1 mouse model
# Assay type: toxicity, organism-based
# Settings: in vivo, read-out: Ratio TD50/ED50
# selectivity ratio annotations
API note: the answer field is a bare number with no unit suffix.

Task item: So what does the record say about selectivity ratio for O=C1NC(=O)C(c2ccccc2)(c2ccccc2)N1 ?
Reply: 5.56

Task item: So what does the record say about selectivity ratio for CC1(c2ccccc2)CC(=O)N(CC(=O)N2CCN(c3ccc(F)cc3)CC2)C1=O (stereo not given) ?
Reply: 2.37

Task item: So what does the record say about selectivity ratio for CC1(c2ccccc2)CC(=O)N(CC(=O)N2CCN(c3ccccc3F)CC2)C1=O (stereo not given) ?
Reply: 2.64

Task item: So what does the record say about selectivity ratio for COc1ccccc1N1CCN(C(=O)CN2C(=O)CC(C)(c3ccccc3)C2=O)CC1 (stereo not given) ?
Reply: 2.46
